Potency: recorded values
assay.name: qHTS for identification of novel therapeutic agents for treatment of microphthalmiaassociated transcription factor (MiT) renal cell carcinoma (RCC) (AID 1963991); also: potency is read from the fitted curve at half-maximal effect
particulars: TFE3-RCC UOK109 viability, CellTiter-Glo, 48 h; active = Z-AUC below -0.8 in all three lines
Procedure: PI: Marston Linehan Ph.D. Urologic Oncology Branch, Center for Cancer Research (CCR) National Cancer Institute (NCI), National Institute of Health (NIH), Bethesda, Maryland […] 6; Detection; Luminescence; ViewLux plate reader (PerkinElmer). […] 1. Quantitative high-throughput screening (qHTS) of 1912 pharmacologically defined small molecule compounds was conducted on three TFE3-fusion cell lines bearing three different fusion partners (UOK109, UOK124, UOK145). […]
Results filed as inconclusive are left out. Activity calls are given as the source filed them.

Known Potency results, listed for orientation:
The recorded Potency for entry "c1ccc2c(-c3cnn4cc(-c5ccc(N6CCNCC6)cc5)cnc34)ccnc2c1" equals 18.7 µM (active)

In plain terms, "CO[C@H]1C=CC=C(C)C(=O)NC2=CC(=O)C(NCCN(C)C)=C(C[C@@H](C)C[C@H](OC)[C@@H](O)[C@@H](C)C=C(C)[C@@H]1OC(N)=O)C2=O" has a documented Potency of 2.64 µM (active)

Lab note: measured Potency of "COc1ccc(-c2nc(N3CCOCC3)c3sc(CN(C)c4ncc(C(=O)NO)cn4)cc3n2)cn1" was 0.0264 µM (active)

molecule "CC(C)n1nc(-c2ccc3oc(N)nc3c2)c2c(N)ncnc21" , Potency observed: 0.0372 µM (active)

Moving on to the next molecule.
// recorded Potency for "O=C1c2ccccc2-[n+]2ccc3c([nH]c4ccccc43)c21" : 1.66 µM (active)

###

assay.name: qHTS Screen of the MIPE 4.0 Collection Against Ewings Sarcoma (RDES) (AID 1259252); also: nearly all actives have a fitted effect of over 35% in size
particulars: RD-ES Ewing sarcoma viability, CellTiter-Glo, 48 h; series mostly up to 45.8 µM
Results filed as inconclusive are left out. Activity calls are given as the source filed them. The call rests on the fitted dose curve; in most records, active means well fitted inhibition curve with a large enough effect; inconclusive means small, poorly fitted or top-dose-only effect; inactive means no such curve, though single readings can be large or run the other way.
Write down the outcome that applies. Available outcomes: Y = active, N = inactive

// below: answered compounds
Hey, what did the test say about "COc1cc2ncnc(Nc3ccc(F)c(Cl)c3)c2cc1OCCCN1CCOCC1" ?
Y

Which outcome did this test record for the compound "O=c1c(O)c(-c2ccc(O)cc2)oc2cc(O)cc(O)c12" ?
Y

Identify the outcome logged in this assay for the compound shown: "COc1cccc(-c2cc(=O)c3ccccc3o2)c1N"
N

Write down the call the test reported for this compound. Item: "O=c1cc(-c2ccc(O)cc2)oc2cc(O)cc(O)c12"
Y

Name the outcome recorded for "CC(=O)N(C)C1(c2ccccc2)CCN(CCC[C@]2(c3ccc(Cl)c(Cl)c3)CCCN(C(=O)c3ccccc3)C2)CC1" in the assay.
Y

Others:
In this assay, the call recorded for "Cc1ccc(C(=O)Nc2cccc(C(F)(F)F)c2)cc1Nc1nc(-c2cccnc2)nc2c1cnn2C" was what?
Y

What classification did "COc1cc2nc(-c3ccc(N4CCN(C)CC4)cc3)nc(NCCN3CCOCC3)c2cc1OC" end up with in this test?
Y

Dear colleague, could you share the recorded outcome for "O=C1C(Cl)=C(NCCN2CCOCC2)C(=O)c2ncccc21" when you have a moment?
Y

Look up the recorded call for "O=C1NC(=O)C(=Cc2ccc3nccnc3c2)S1" in this test.
Y

What did the test return for Clc1ccc(C(c2ccc(Cl)cc2)n2cc[n+](CC(OCc3ccc(Cl)cc3Cl)c3ccc(Cl)cc3Cl)c2)cc1 (stereo not given) ?
Y

###

assay.name: qHTS of pediatric cancer cell lines to identify multiple opportunities for drug repurposing: Primary screen for control Hh wild type fibroblast cells (AID 1347106); also: nearly all actives have a fitted effect of over 55% in size
particulars: Hh wild-type fibroblast viability, CellTiter-Glo luminescence, 48 h; series mostly up to 46 µM
Inconclusive results are not listed. The source made the active and inactive calls. Calls follow the shape of the dose curve; as a rule, active = well fitted cell-killing curve with a large enough effect; inconclusive = small, poorly fitted or top-dose-only effect; inactive = flat fitted curve, though single readings scatter.
Pick one and only one: yes (active), no (inactive)

Examples with answers:
Assay outcome for CCOC(=O)C1=C(N)Oc2ccc(Br)cc2C1C(C#N)C(=O)OCC (stereo not drawn) : what was it?
no

Which outcome was assigned to "NCCS" in this test?
no

For "CN1CCN(CCOc2cc(OC3CCOCC3)c3c(Nc4c(Cl)ccc5c4OCO5)ncnc3c2)CC1" , which call appears in the assay record?
no

Check the results log: what was the call for O=C(NOCC(O)CO)c1cc(Br)c(F)c(F)c1Nc1ccc(I)cc1F (stereo not drawn) ?
no

Recorded call for "CC(C)(Cc1ccc2ccccc2c1)NC[C@@H](O)COc1cccc(Cl)c1C#N" ?
no

Write down the call the test reported for this compound. Item: "Cc1ccc(F)c(NC(=O)Nc2ccc(-c3cccc4[nH]nc(N)c34)cc2)c1"
no

Next:
Per the records of this test, what outcome belongs to "O=C1NC(=O)C(=Cc2ccc3nccnc3c2)S1" ?
no

Recorded test outcome, item "O=C1c2ccccc2-[n+]2ccc3c([nH]c4ccccc43)c21"
yes

Which outcome was entered for the compound "C[C@H]1[C@H](NC(=O)C(=NOC(C)(C)C(=O)O)c2csc(N)n2)C(=O)N1S(=O)(=O)O" in this test?
no

Status in this test for "Cc1cnc(C(=O)O)c[n+]1[O-]" ?
no

What call does the record list for "COc1cc(Nc2ncc(F)c(Nc3ccc4c(n3)NC(=O)C(C)(C)O4)n2)cc(OC)c1OC" ?
no

Write down the call the test reported for this compound. Item: "O=C(O)CCc1nc(-c2ccccc2)c(-c2ccccc2)o1"
no

Returns: the outcome recorded for "CC[C@H]1OC(=O)[C@H](C)[C@@H](O[C@H]2C[C@@](C)(OC)[C@@H](O)[C@H](C)O2)[C@H](C)[C@@H](O[C@@H]2O[C@H](C)C[C@H](N(C)C)[C@@H]2O)[C@](C)(O)C[C@@H](C)CN(C)[C@H](C)[C@@H](O)[C@]1(C)O" in this assay.
no

###

assay.name: qHTS profiling of the MIPE4 collection as inhibitors of Plasmodium falciparum (HB3) proliferation (AID 743347);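 also: plate controls were DMSO vehicle wells for no effect and artemisinin wells for full effect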
particulars: P. falciparum HB3 in erythrocytes, SYBR Green DNA, 72 h; at 28.5 µM (top of the series) unless noted
observation.type: growth, % of control (%)
Report the figure in % without appending any unit label.

Record summary for Clc1ccc(COC(Cn2ccnc2)c2ccc(Cl)cc2Cl)cc1 (centres undefined) : reported growth, % of control = 3.47

In plain terms, "CCC(=O)NC[C@H](Cc1ccc(OCCc2nc(-c3ccccc3)oc2C)cc1)NC(C)=CC(=O)c1ccc(C(F)(F)F)cc1" has a documented growth, % of control of 9.04

For C=C1C(=O)OC2C=C(C)CCC=C(C)CCC12 (centres undefined) the compound record lists growth, % of control as 559

Lab note: measured growth, % of control of O=C(O)C(O)Cc1ccc(O)c(O)c1 (centres undefined) was 106

Briefly, growth, % of control measured for "COc1ccc(-c2nc(N3CCOCC3)c3sc(CN(C)c4ncc(C(=O)NO)cn4)cc3n2)cn1" : 2.4

Others:
The reported growth, % of control of the compound "C[C@H](NC(=O)C(=O)Nc1ccccc1C(C)(C)C)C(=O)N[C@@H](CC(=O)O)C(=O)COc1c(F)c(F)cc(F)c1F" was 405

growth, % of control for Cc1nnc(C(C)C)n1C1C[C@H]2CC[C@@H](C1)N2CC[C@H](NC(=O)C1CCC(F)(F)CC1)c1ccccc1 (some centres undefined) is 92.4

Please fill in: growth, % of control reported for "O=C(O)c1ccc(-c2c[nH]c3ncc(-c4ccccc4)cc23)cc1C1CCCC1" = 3.77

###

assay.name: Quantitative High-Throughput drug screen in 47 multiple myeloma cell lines against the NCATS MIPE library collection: JIM3_ECACC cell viability assay (AID 1918963; also: nearly all actives have a fitted effect of over 35% in size)
particulars: JIM3 myeloma viability, CellTiter-Glo ATP, 48 h; series mostly up to 45.8 µM
Text: PI: Beverly A. Mock Ph.D. Laboratory of Cancer Biology and Genetics, Center for Cancer Research, National Cancer Institute, National Institute of Health, Bethesda, Maryland […] 5; Detector; 425V; Luminescence; Viewlux PerkinElmer. […] 1. […] Briefly, the corresponding myeloma cell lines were screened in 1,536-well plates with 500 cells, 5-uL per well for inhibition of cell viability (assessed by measuring ATP levels with CellTiterGlo). […]
Records with an inconclusive call do not appear. Active and inactive are the calls of the source. Calls follow the shape of the dose curve; as a rule, active = well fitted cell-killing curve with a large enough effect; inconclusive = small, poorly fitted or top-dose-only effect; inactive = no such curve, though single readings can be large or run the other way.
Returns: one label drawn from active, inactive

These recorded examples may help you get a feel for the data.
Check the results log: what was the call for "CCc1ccc(OCc2ccccc2C(=O)Nc2ccc3nc(C)cc(N)c3c2)cc1" ?
active

Write down the call the test reported for this molecule. Item: "CCC(=O)NC[C@H](Cc1ccc(OCCc2nc(-c3ccccc3)oc2C)cc1)NC(C)=CC(=O)c1ccc(C(F)(F)F)cc1"
inactive

Dear colleague, could you share the recorded outcome for "NC(=O)c1cccc2[nH]c(-c3ccc([C@H]4CCCN4)cc3F)nc12" when you have a moment?
active

Could you kindly confirm the outcome this assay logged for C=C1C(=O)[C@@]23C(CC[C@@H]1[C@H]2O)[C@@]12CO[C@]3(O)[C@@H](O)[C@@H]1C(C)(C)CC[C@@H]2O (some centres not stated) ?
active

Recorded call for "OC[C@H]1O[C@@H](Oc2cc(O)cc(C=Cc3ccc(O)cc3)c2)[C@H](O)[C@@H](O)[C@H]1O" ?
inactive

---
Any idea what this test logged for "CO[C@H]1C=CO[C@@]2(C)Oc3c(C)c(O)c4c(O)c(c5c(c4c3C2=O)NC2(CCN(CC(C)C)CC2)N=5)=NC(=O)C(C)=CC=C[C@H](C)[C@H](O)[C@@H](C)[C@@H](O)[C@@H](C)[C@H](OC(C)=O)[C@H]1C" ?
inactive

What did this assay record as the result for "O=c1cc(CN2CCOCC2)occ1OCCCCCSc1ccnc2cc(C(F)(F)F)ccc12" ?
active
